Source listed as paper PMC12509308.

SUBJECT OF TEST: PaD2HGDH (Pseudomonas aeruginosa, UniProt Q9I6H4)
Construct: full-length wild type, C-terminal 6x-His tag kept, pET20b(+), expressed in E. coli Rosetta(DE3)pLysS, Ni-NTA purified
Sequence (Q9I6H4 1-464): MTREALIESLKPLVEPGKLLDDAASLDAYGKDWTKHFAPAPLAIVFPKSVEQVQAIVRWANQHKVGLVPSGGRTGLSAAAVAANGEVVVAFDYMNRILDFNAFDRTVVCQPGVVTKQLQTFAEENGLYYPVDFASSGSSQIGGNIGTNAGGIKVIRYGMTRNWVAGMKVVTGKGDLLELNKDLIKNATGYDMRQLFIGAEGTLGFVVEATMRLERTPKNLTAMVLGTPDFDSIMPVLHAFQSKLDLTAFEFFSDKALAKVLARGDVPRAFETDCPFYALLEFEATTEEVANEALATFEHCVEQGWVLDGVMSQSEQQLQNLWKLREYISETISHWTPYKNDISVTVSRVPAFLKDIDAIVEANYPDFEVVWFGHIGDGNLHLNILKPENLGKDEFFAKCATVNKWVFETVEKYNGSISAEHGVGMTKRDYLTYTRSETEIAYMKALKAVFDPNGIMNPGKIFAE
ASSAY SUMMARY: PMS-driven oxygen consumption, initial rates, steady-state inhibition
CONDITION LABEL: read-out: Kis
MEASURED METRIC: pKi
Here pKi is given on a logarithmic scale as minus log10 of the concentration in mol/L.

Take a look at these entries with their results.
INSERT INTO results (compound, subject_of_test, test_result) VALUES
  ('O=C(O)[C@H](O)c1ccccc1 [D-Mandelate]', 'PaD2HGDH (Pseudomonas aeruginosa, UniProt Q9I6H4)', 1.74),
  ('O=C(O)C[C@H](O)C(=O)O [L-Malate]', 'PaD2HGDH (Pseudomonas aeruginosa, UniProt Q9I6H4)', 1.84),
  ('O=C(O)C(O)C(=O)O [Tartronate]', 'PaD2HGDH (Pseudomonas aeruginosa, UniProt Q9I6H4)', 1.73),
  ('O=C(O)CC[C@H](O)C(=O)O [L-2-Hydroxyglutarate]', 'PaD2HGDH (Pseudomonas aeruginosa, UniProt Q9I6H4)', 2.39);

(Q) Provide pKi, recorded with PaD2HGDH (Pseudomonas aeruginosa, UniProt Q9I6H4), of O=C(O)CC(C(=O)O)C(O)C(=O)O (racemic) [D/L-Isocitrate]
(A) 2.11

(Q) Provide pKi, recorded with PaD2HGDH (Pseudomonas aeruginosa, UniProt Q9I6H4), of O=C(O)C(O)c1ccc(O)c(O)c1 (racemic) [D/L-3,4-Dihydroxymandelate]
(A) 2.39

(Q) Provide pKi, recorded with PaD2HGDH (Pseudomonas aeruginosa, UniProt Q9I6H4), of O=C(O)C(O)c1ccc(O)cc1 (racemic) [D/L-4-Hydroxymandelate]
(A) 2.19

(Q) Provide pKi, recorded with PaD2HGDH (Pseudomonas aeruginosa, UniProt Q9I6H4), of O=C(O)CC(=O)C(=O)O [Oxaloacetate]
(A) 2.69

(Q) Provide pKi, recorded with PaD2HGDH (Pseudomonas aeruginosa, UniProt Q9I6H4), of O=C(O)CCC(=O)C(=O)O [2-Ketoglutarate]
(A) 2.37
